# test-system: KRAS-G12D (Homo sapiens, UniProt P01116, G12D)
# Construct: endogenous in cells; host or cells: A-427 (ATCC), AGS, AsPc-1, Panc 04.03
# Sequence (P01116 1-188 isoform P01116-2 G12D): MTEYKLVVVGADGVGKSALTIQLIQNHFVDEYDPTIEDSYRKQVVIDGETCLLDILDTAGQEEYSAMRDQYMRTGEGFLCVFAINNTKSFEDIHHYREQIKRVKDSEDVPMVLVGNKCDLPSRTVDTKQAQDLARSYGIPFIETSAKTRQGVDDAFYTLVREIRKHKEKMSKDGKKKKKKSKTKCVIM
# method-summary: KRAS-G12D degradation assay (Western Blot), Panc 04.03 cells
# Type: cell-based
# setup-conditions: 24 h
reported-endpoint: log10 DC50 (log10 of the value in nM)

>  <compound>
CCc1c(F)ccc2cc(O)cc(-c3ncc4c(N5CC6CCC(C5)N6)nc(OCC5(CN6CCN(CC7CCC8(CC7)CCN(C(=O)c7ccc(OC)c(N9CCC(=O)NC9=O)c7)CC8)CC6)CC5)nc4c3F)c12

>  <test-system>
KRAS-G12D (Homo sapiens, UniProt P01116, G12D)

>  <log10 DC50>
1.22

$$$$
>  <compound>
C#Cc1c(F)ccc2cc(O)cc(-c3ncc4c(N5CC6CCC(C5)N6)nc(OCC(C)CN5CCN(CC6CCC7(CC6)CCN(C(=O)c6ccc(OC)c(N8CCC(=O)NC8=O)c6)CC7)CC5)nc4c3F)c12 (stereo not drawn)

>  <test-system>
KRAS-G12D (Homo sapiens, UniProt P01116, G12D)

>  <log10 DC50>
0.30

$$$$
>  <compound>
C#Cc1cccc2cc(O)cc(-c3ccc4c(N5CC6CCC(C5)N6)nc(OCC5(CN6CCN(CC7CCC8(CC7)CCN(C(=O)c7ccc(C)c(N9CCC(=O)NC9=O)c7)CC8)CC6)CC5)nc4c3F)c12

>  <test-system>
KRAS-G12D (Homo sapiens, UniProt P01116, G12D)

>  <log10 DC50>
1.42

$$$$
>  <compound>
CCc1cccc2cc(O)cc(-c3ncc4c(N5CC6CCC(C5)N6)nc(OCC5(CN6CCN(CC7CCC8(CC7)CCN(C(=O)c7ccc(Cl)c(N9CCC(=O)NC9=O)c7)CC8)CC6)CC5)nc4c3F)c12

>  <test-system>
KRAS-G12D (Homo sapiens, UniProt P01116, G12D)

>  <log10 DC50>
1.50

$$$$
>  <compound>
CCc1c(F)ccc2cc(O)cc(-c3ccc4c(N5CC6CCC(C5)N6)nc(OCC5(CN6CCN(CC7CCC8(CC7)CCN(C(=O)c7ccc(C)c(N9CCC(=O)NC9=O)c7)CC8)CC6)CC5)nc4c3F)c12

>  <test-system>
KRAS-G12D (Homo sapiens, UniProt P01116, G12D)

>  <log10 DC50>
0.97

$$$$
>  <compound>
C#Cc1c(F)ccc2cc(O)cc(-c3ccc4c(N5CC6CCC(C5)N6)nc(OCC5(CN6CCN(CC7CCC8(CC7)CCN(C(=O)c7ccc(C)c(N9CCC(=O)NC9=O)c7)CC8)CC6)CC5)nc4c3F)c12

>  <test-system>
KRAS-G12D (Homo sapiens, UniProt P01116, G12D)

>  <log10 DC50>
0.87

$$$$
>  <compound>
CCc1c(F)ccc2cc(O)cc(-c3ccc4c(N5CC6CCC(C5)N6)nc(OCC5(CN6CCN(CC7CCC8(CC7)CCN(C(=O)c7ccc(OC)c(N9CCC(=O)NC9=O)c7)CC8)CC6)CC5)nc4c3F)c12

>  <test-system>
KRAS-G12D (Homo sapiens, UniProt P01116, G12D)

>  <log10 DC50>
1.43

$$$$
>  <compound>
C#Cc1c(F)ccc2cc(O)cc(-c3ccc4c(N5CC6CCC(C5)N6)nc(OCC5(CN6CCN(CC7CCC8(CC7)CCN(C(=O)c7ccc(OC)c(N9CCC(=O)NC9=O)c7)CC8)CC6)CC5)nc4c3F)c12

>  <test-system>
KRAS-G12D (Homo sapiens, UniProt P01116, G12D)

>  <log10 DC50>
1.08

$$$$
>  <compound>
C#Cc1c(F)ccc2cc(O)cc(-c3ncc4c(N5CC6CCC(C5)N6)nc(OCC5(CN6CCN(CC7CCC8(CC7)CCN(C(=O)c7ccc(Cl)c(N9CCC(=O)NC9=O)c7)CC8)CC6)CC5)nc4c3F)c12

>  <test-system>
KRAS-G12D (Homo sapiens, UniProt P01116, G12D)

>  <log10 DC50>
1.34

$$$$
>  <compound>
C#Cc1cccc2cc(O)cc(-c3ncc4c(N5CC6CCC(C5)N6)nc(OCC5(CN6CCN(CC7CCC8(CC7)CCN(C(=O)c7ccc(C)c(N9CCC(=O)NC9=O)c7)CC8)CC6)CC5)nc4c3F)c12

>  <test-system>
KRAS-G12D (Homo sapiens, UniProt P01116, G12D)

>  <log10 DC50>
0.61

$$$$
>  <compound>
C#Cc1cccc2cc(O)cc(-c3ncc4c(N5CC6CCC(C5)N6)nc(OCC5(CN6CCN(CC7CCC8(CC7)CCN(C(=O)c7ccc(Cl)c(N9CCC(=O)NC9=O)c7)CC8)CC6)CC5)nc4c3F)c12

>  <test-system>
KRAS-G12D (Homo sapiens, UniProt P01116, G12D)

>  <log10 DC50>
0.95

$$$$
>  <compound>
C#Cc1cccc2cc(O)cc(-c3ccc4c(N5CC6CCC(C5)N6)nc(OCC5(CN6CCN(CC7CCC8(CC7)CCN(C(=O)c7ccc(Cl)c(N9CCC(=O)NC9=O)c7)CC8)CC6)CC5)nc4c3F)c12

>  <test-system>
KRAS-G12D (Homo sapiens, UniProt P01116, G12D)

>  <log10 DC50>
1.21

$$$$
>  <compound>
C#Cc1cccc2cc(O)cc(-c3ncc4c(N5CC6CCC(C5)N6)nc(OCC5(CN6CCN(CC7CCC8(CC7)CCN(C(=O)c7ccc(OC)c(N9CCC(=O)NC9=O)c7)CC8)CC6)CC5)nc4c3F)c12

>  <test-system>
KRAS-G12D (Homo sapiens, UniProt P01116, G12D)

>  <log10 DC50>
0.83

$$$$
>  <compound>
CCc1cccc2cc(O)cc(-c3ncc4c(N5CC6CCC(C5)N6)nc(OCC5(CN6CCN(CC7CCC8(CC7)CCN(C(=O)c7ccc(OC)c(N9CCC(=O)NC9=O)c7)CC8)CC6)CC5)nc4c3F)c12

>  <test-system>
KRAS-G12D (Homo sapiens, UniProt P01116, G12D)

>  <log10 DC50>
1.18

$$$$
>  <compound>
CCc1cccc2cc(O)cc(-c3ncc4c(N5CC6CCC(C5)N6)nc(OCC5(CN6CCN(CC7CCC8(CC7)CCN(C(=O)c7ccc(C)c(N9CCC(=O)NC9=O)c7)CC8)CC6)CC5)nc4c3F)c12

>  <test-system>
KRAS-G12D (Homo sapiens, UniProt P01116, G12D)

>  <log10 DC50>
1.36

$$$$

----------
# test-system: Human KRAS G12D 6His-tagged (Homo sapiens, UniProt P01116, G12D)
# Construct: purchased PerkinElmer
# method-summary: KRAS-G12D/GTP binding assay (HTRF)
# setup-conditions: class symbols
reported-endpoint: IC50

>  <smiles-repr>
C#Cc1c(F)ccc2cc(O)cc(-c3ncc4c(N5CC6CCC(C5)N6)nc(OCC5(CN6CCN(CCCC7CCN(C(=O)c8ccc(Cl)c(N9CCC(=O)NC9=O)c8)CC7)CC6)CCC5)nc4c3F)c12

>  <endpoint-value>
≤ 0.05 µM

$$$$
>  <smiles-repr>
CCc1cccc2cc(O)cc(-c3ncc4c(N5CC6CCC(C5)N6)nc(OC[C@@H]5CCCN5CCCC5CCN(C(=O)c6ccc(Cl)c(N7CCC(=O)NC7=O)c6)CC5)nc4c3F)c12

>  <endpoint-value>
0.1 to 0.5 µM

$$$$
>  <smiles-repr>
C#Cc1c(F)ccc2cc(O)cc(-c3ncc4c(N5CC6CCC(C5)N6)nc(OCC5CCN(CCCCC6CCC7(CC6)CCN(C(=O)c6ccc(Cl)c(N8CCC(=O)NC8=O)c6)CC7)CC5)nc4c3F)c12

>  <endpoint-value>
0.1 to 0.5 µM

$$$$
>  <smiles-repr>
C#Cc1c(F)ccc2cc(O)cc(-c3ncc4c(N5CC6CCC(C5)N6)nc(OCC5(CN6CC7CCC(C6)N7CC6CCC7(CC6)CCN(C(=O)c6ccc(Cl)c(N8CCC(=O)NC8=O)c6)CC7)CC5)nc4c3F)c12

>  <endpoint-value>
0.5 to 1 µM

$$$$
>  <smiles-repr>
CCc1c(F)ccc2cc(O)cc(-c3ncc4c(N5CC6CCC(C5)N6)nc(OCC5(CN6CCN(CC7CCC8(CC7)CCN(C(=O)c7ccc(OC)c(N9CCC(=O)NC9=O)c7)CC8)CC6)CC5)nc4c3F)c12

>  <endpoint-value>
≤ 0.05 µM

$$$$
>  <smiles-repr>
C#Cc1c(F)ccc2cc(O)cc(-c3ncc4c(N5CC6CCC(C5)N6)nc(OCC(C)(C)CN5CCN(CC6CCC7(CC6)CCN(C(=O)c6ccc(OC)c(N8CCC(=O)NC8=O)c6)CC7)CC5)nc4c3F)c12

>  <endpoint-value>
0.05 to 0.1 µM

$$$$
>  <smiles-repr>
C#Cc1c(F)ccc2cc(O)cc(-c3ncc4c(N5CC6CCC(C5)N6)nc(OCC5(CN6CCC(COCC7CCN(C(=O)c8ccc(Cl)c(N9CCC(=O)NC9=O)c8)CC7)CC6)CC5)nc4c3F)c12

>  <endpoint-value>
≤ 0.05 µM

$$$$
>  <smiles-repr>
C#Cc1c(F)ccc2cc(O)cc(-c3ncc4c(N5CC6CCC(C5)N6)nc(OCC5(CN6CCN(CCCC7CCN(C(=O)c8ccc(Cl)c(N9CCC(=O)NC9=O)c8)CC7)CC6)CC5)nc4c3F)c12

>  <endpoint-value>
≤ 0.05 µM

$$$$
>  <smiles-repr>
C#Cc1c(F)ccc2cc(O)cc(-c3ncc4c(N5CC6CCC(C5)N6)nc(OC[C@@H]5CCCN5CCC5CCC6(CC5)CCN(C(=O)c5ccc(Cl)c(N7CCC(=O)NC7=O)c5)CC6)nc4c3F)c12

>  <endpoint-value>
0.5 to 1 µM

$$$$
>  <smiles-repr>
C#Cc1c(F)ccc2cc(O)cc(-c3ncc4c(N5CC6CCC(C5)N6)nc(OCC5(CN6CCN(CCCC7CCC8(CC7)CCN(C(=O)c7ccc(Cl)c(N9CCC(=O)NC9=O)c7)CC8)CC6)CC5)nc4c3F)c12

>  <endpoint-value>
≤ 0.05 µM

$$$$
>  <smiles-repr>
C#Cc1c(F)ccc2cc(O)cc(-c3ncc4c(N5CC6CCC(C5)N6)nc(OCC5(CN6CCN(CCC7CCN(C(=O)c8ccc(Cl)c(N9CCC(=O)NC9=O)c8)CC7)CC6)CC5)nc4c3F)c12

>  <endpoint-value>
≤ 0.05 µM

$$$$
>  <smiles-repr>
C#Cc1cccc2cc(O)cc(-c3ncc4c(N5CC6CCC(C5)N6)nc(OCC5(CN6CCN(CC7CCC8(CC7)CCN(C(=O)c7ccc(C)c(N9CCC(=O)NC9=O)c7)CC8)CC6)CC5)nc4c3F)c12

>  <endpoint-value>
≤ 0.05 µM

$$$$
>  <smiles-repr>
Cc1ccc2[nH]ncc2c1-c1ncc2c(N3CC4CCC(C3)N4)nc(OCC3(CN4CCN(CC5CCC6(CC5)CCN(C(=O)c5ccc(Cl)c(N7CCC(=O)NC7=O)c5)CC6)CC4)CC3)nc2c1F

>  <endpoint-value>
1 to 10 µM

$$$$
>  <smiles-repr>
C#Cc1c(F)ccc2cc(O)cc(-c3ncc4c(N5CC6CCC(C5)N6)nc(OC[C@@H]5CCCN5CC5CCN(CCC(=O)N[C@H](C(=O)N6C[C@H](O)C[C@H]6C(=O)NCc6ccc(-c7scnc7C)cc6)C(C)(C)C)CC5)nc4c3F)c12

>  <endpoint-value>
≤ 0.05 µM

$$$$
>  <smiles-repr>
C#Cc1c(F)ccc2cc(O)cc(-c3ncc4c(N5CC6CCC(C5)N6)nc(OCC5(CN6CCN(CCCCC7CCN(C(=O)c8ccc(Cl)c(N9CCC(=O)NC9=O)c8)CC7)CC6)CC5)nc4c3F)c12

>  <endpoint-value>
≤ 0.05 µM

$$$$
>  <smiles-repr>
C#Cc1c(F)ccc2cc(O)cc(-c3ncc4c(N5CC6CCC(C5)N6)nc(OCC5(CN6CCC(CCOCC7CCN(C(=O)c8ccc(Cl)c(N9CCC(=O)NC9=O)c8)CC7)CC6)CC5)nc4c3F)c12

>  <endpoint-value>
≤ 0.05 µM

$$$$
>  <smiles-repr>
CCc1cccc2cc(O)cc(-c3ncc4c(N5CC6CCC(C5)N6)nc(OCC5(CN6CCN(CCCC7CCN(C(=O)c8ccc(Cl)c(N9CCC(=O)NC9=O)c8)CC7)CC6)CC5)nc4c3F)c12

>  <endpoint-value>
≤ 0.05 µM

$$$$
>  <smiles-repr>
C#Cc1c(F)ccc2cc(O)cc(-c3ncc4c(N5CC6CCC(C5)N6)nc(OCC5(CN6CCN(CC7CCC8(CC7)CCN(C(=O)c7ccc(C)c(N9CCC(=O)NC9=O)c7)CC8)CC6)CC5)nc4c3F)c12

>  <endpoint-value>
≤ 0.05 µM

$$$$
>  <smiles-repr>
C#Cc1c(F)ccc2cc(O)cc(-c3ncc4c(N5CC6CCC(C5)N6)nc(OCC5(CN6CCC(COCCC7CCN(C(=O)c8ccc(Cl)c(N9CCC(=O)NC9=O)c8)CC7)CC6)CC5)nc4c3F)c12

>  <endpoint-value>
≤ 0.05 µM

$$$$
